Test system: SNB-75 CNS
Assay Summary: NCI tumour cell line growth inhibition, 48 h
Measured Parameter: TGI

Q. Item CC(C)(C)OC(=O)Nc1ccc2c(c1)C(NC(=O)Nc1cccc(C#N)c1)CC(C)(C)O2 (centres undefined) with SNB-75 CNS - TGI?
A. > 100 µM

Q. Kindly state the measured TGI obtained for COc1cc2nccc(Oc3ccc(NC(=O)c4cn(C(C)C)c(=O)n(-c5ccc(F)cc5)c4=O)cc3F)c2cc1OC with SNB-75 CNS.
A. > 21.9 µM

Q. Record lookup: for SNB-75 CNS, what TGI belongs to O=C(O)c1ccc(SSc2ccc(C(=O)O)cn2)nc1 ?
A. > 100 µM

Q. Lab note: need TGI for Cc1cc(S(=O)(=O)N=C2Nc3cccc4cccc(c34)N2)c(S)cc1Cl on SNB-75 CNS, anyone have it?
A. > 100 µM
